Reference source for all entries: patent US20210363269A1

# STUDY TARGET: T1, human SIRPβ isoform 1 (human, UniProt O00241 30-148)
# T1 construct: also called Beta; Human SIRPb
# T1 sequence (O00241 30-148 limits assumed): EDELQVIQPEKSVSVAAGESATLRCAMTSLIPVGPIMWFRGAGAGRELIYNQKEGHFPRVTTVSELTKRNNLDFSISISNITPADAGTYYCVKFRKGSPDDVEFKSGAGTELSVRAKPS
# TEST METHOD NOTES: SPR Koff +/-
RECORDED ENDPOINT: binding result

- BINDER: "antibody 214 (antibody, V domains shown, also called S214) VH: DVQLVESEGGVVRPGESLRLSCEASGFTFRNSYMTWVRQAPGEGLEWVSTISDTGDTAYYADSVKGRFTISRDNSKNSLYLQMNSLRAEDTAIYYCAKSWIWWTFFDYWGLGTLVTVSS VL: ALTQPASVSANLGGTVEITCSGGNSNHYGWYQQKSPGSAPVTLIYADTNRPSNIPSRFSGSTSGSTSTLTITGVQAEDEAVYYCGGSSTGDGIFGAGTTLTVL"
  binding result: "no binding"
- BINDER: "antibody 122 (antibody, V domains shown, also called S122) VH: VQLVESGGGVVRPGESLRLSCAASGFRFSNFAMTWVRQAPGEGLEWVSTIGSGDTYYADSVKGRFTISRDNSKNTLYLQMNSLRAEDTAVYYCAKDSTVSWSGDFFDYWGLGTLVTVSS VL: EIVLTQSPATLSVSPGERATFSCRASQNVKNDLAWYQQRPGQAPRLLIYAARIRETGIPERFSGSGSGTEFTLTITSLQSEDFAVYYCQQYYDWPPFTFGGGTKVEIK"
  binding result: "binds"
- BINDER: "antibody 116 (antibody, V domains shown, also called S116) VH: VQLVESGGGVVRPGESLRLSCAASGFSFSSYAMNWVRQAPGEGLEWVSRINSGGGGTDYAESVKGRFTISRDNSENTLYLQMNSLRAEDTAVYYCAKQYDWNSFFDYWGLGALVTVSS VL: ETVLTQSPATLSVSPGERATLSCRASQTVGSKLAWHQQKPGQAPRLLIYDATNRATGISDRFSGSRSGTDFTLTISSLQTEDSAVYYCQQYYYWPPYRFGGGTKVEIK"
  binding result: "binds"
- BINDER: "antibody 123 (antibody, V domains shown, also called S123) VH: VQLVESGGGLVQPGGSLRLSCTASGFTFRNYGMSWVRQAPGEGLEWVSASSGSGSTYYTDSVKGRFTISRDNSKNTLYLQMNSLRAEDTAIYYCAKVTWNNFFDYWGLGTLVTVSS VL: EIVLTQSPGTLSVSPGERVTLTCRASQGIAGKIAWYQQKPGQAPRLLIYDASSRATGIPGRFSGSGSGTEFTLTITSLQSEDFAVYYCQQHYDWSPLTFGGGTKVEIK"
  binding result: "no binding"

// switching to the query binder
Q. Entry antibody 174 (antibody, V domains shown, also called S174) VH: DVQLVESGGGVVRPGESLRLSCAASGFTFSDHDMSWVRQGPGEGLEWVAGISLRGGVTWYADSVKGRFTISRDNSKNTLYLRLFSLRTEDTAIYYCARESWNTFFDYWGLGTLVTVSS VL: EIVLTQSPGTLSLSPGETATLSCRASQNVRSNLAWYQQKPGQAPRLLIYDASSRATGIPDRFSGSGSGTDFTLTISSLQSEDFAVYYCQQYGNGPPLTFGGGTKVEIK : reported binding result = ?
A. no binding
